Data origin, for the record: patent US10202389B2

# system: recombinant human UAE (Homo sapiens (Human), UniProt P22314)
# Sequence (P22314 whole entry): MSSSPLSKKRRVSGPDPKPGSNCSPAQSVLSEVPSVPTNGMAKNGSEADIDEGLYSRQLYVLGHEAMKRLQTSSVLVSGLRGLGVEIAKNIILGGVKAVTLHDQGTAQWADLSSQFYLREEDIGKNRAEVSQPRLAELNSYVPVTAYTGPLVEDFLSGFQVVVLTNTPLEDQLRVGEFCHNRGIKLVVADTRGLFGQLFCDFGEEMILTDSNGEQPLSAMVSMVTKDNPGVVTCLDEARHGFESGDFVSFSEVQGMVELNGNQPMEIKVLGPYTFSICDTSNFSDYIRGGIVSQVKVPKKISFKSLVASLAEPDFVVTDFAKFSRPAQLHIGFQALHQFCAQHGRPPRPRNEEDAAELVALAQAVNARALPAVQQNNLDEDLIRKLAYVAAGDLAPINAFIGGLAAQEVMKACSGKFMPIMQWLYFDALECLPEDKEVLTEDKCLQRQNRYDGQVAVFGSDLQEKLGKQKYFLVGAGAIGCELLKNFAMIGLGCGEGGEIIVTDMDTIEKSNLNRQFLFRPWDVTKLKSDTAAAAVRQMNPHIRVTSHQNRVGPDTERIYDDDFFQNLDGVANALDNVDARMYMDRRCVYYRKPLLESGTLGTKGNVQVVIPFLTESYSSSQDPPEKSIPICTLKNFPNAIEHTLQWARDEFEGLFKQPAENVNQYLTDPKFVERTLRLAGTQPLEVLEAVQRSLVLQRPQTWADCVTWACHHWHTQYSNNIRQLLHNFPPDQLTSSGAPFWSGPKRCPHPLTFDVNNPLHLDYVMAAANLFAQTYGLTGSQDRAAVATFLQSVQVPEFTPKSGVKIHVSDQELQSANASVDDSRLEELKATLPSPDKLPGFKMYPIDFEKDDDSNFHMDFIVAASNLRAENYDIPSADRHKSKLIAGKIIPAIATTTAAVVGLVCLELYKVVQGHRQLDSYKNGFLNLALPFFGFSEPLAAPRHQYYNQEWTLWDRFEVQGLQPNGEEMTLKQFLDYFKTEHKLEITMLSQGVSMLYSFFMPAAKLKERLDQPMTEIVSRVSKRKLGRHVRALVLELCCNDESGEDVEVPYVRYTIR
# measurement-description: Ubiquitin Activating Enzyme (UAE) HTRF Assay
# measurement-parameters: read-out: % inhibition @0.111 μM
I'd be grateful if you could share measured inhibition at 0.111 µM for these entries.
Give bare numbers, in %.

Reference set, count: 5
{"molecule": "NS(=O)(=O)OC[C@H]1C[C@@H](Nc2ccnc3cc(-c4c(Cl)cc(Cl)c5ccccc45)nn23)[C@H](O)[C@@H]1O", "inhibition at 0.111 µM, %": 92}
{"molecule": "COC(C)(C)c1cccc(-c2cc3nccc(N[C@@H]4C[C@H](COS(N)(=O)=O)[C@@H](O)[C@H]4O)n3n2)c1 (relative stereo)", "inhibition at 0.111 µM, %": 100}
{"molecule": "NS(=O)(=O)OC[C@H]1C[C@@H](Nc2ccnc3cc(-c4coc5ccccc45)nn23)[C@H](O)[C@@H]1O (relative stereo)", "inhibition at 0.111 µM, %": 100}
{"molecule": "NS(=O)(=O)OC[C@H]1C[C@@H](Nc2cc(Cl)nc3cc(-c4cccc5ccccc45)nn23)[C@H](O)[C@@H]1O (relative stereo)", "inhibition at 0.111 µM, %": 42}
{"molecule": "COc1cc(F)ccc1-c1cc2nccc(N[C@@H]3C[C@H](COS(N)(=O)=O)[C@@H](O)[C@H]3O)n2n1 (relative stereo)", "inhibition at 0.111 µM, %": 99}

Alright, here's another molecule for you.
Hello, I am looking for reported inhibition at 0.111 µM with recombinant human UAE (Homo sapiens (Human), UniProt P22314) for Cc1ccc2ccccc2c1-c1cc2nccc(N[C@@H]3C[C@H](COS(N)(=O)=O)[C@@H](O)[C@H]3O)n2n1 . Could you help?
99

* * *

# system: recombinant human UAE (Homo sapiens (Human), UniProt P22314)
# measurement-description: Ubiquitin Activating Enzyme (UAE) HTRF Assay
# measurement-parameters: read-out: % inhibition @0.111 μM
I'd be grateful if you could share measured inhibition at 0.111 µM for these entries.
Numbers only, in %.

Reference set, count: 3
{"compound": "CC(CO)(CCl)c1cccc(-c2cc3nccc(N[C@@H]4C[C@H](COS(N)(=O)=O)[C@@H](O)[C@H]4O)n3n2)c1 (relative stereo) [Compound I-123]", "system": "recombinant human UAE (Homo sapiens (Human), UniProt P22314)", "inhibition at 0.111 µM / %": 100}
{"compound": "NS(=O)(=O)OC[C@H]1C[C@@H](Nc2ccnc3cc(-c4csc5ccc(Cl)cc45)nn23)[C@H](O)[C@@H]1O (relative stereo) [Compound I-071]", "system": "recombinant human UAE (Homo sapiens (Human), UniProt P22314)", "inhibition at 0.111 µM / %": 100}
{"compound": "CCc1ccc2sc(-c3cc4nccc(N[C@@H]5C[C@H](COS(N)(=O)=O)[C@@H](O)[C@H]5O)n4n3)cc2c1 (relative stereo) [Compound I-095]", "system": "recombinant human UAE (Homo sapiens (Human), UniProt P22314)", "inhibition at 0.111 µM / %": 70}

// for each compound below, give its inhibition at 0.111 µM
1. NS(=O)(=O)OC[C@H]1C[C@@H](Nc2ccnc3cc(-c4c[nH]c5cc(Cl)ccc45)nn23)[C@H](O)[C@@H]1O (relative stereo) [Compound I-055]
2. NS(=O)(=O)OC[C@H]1C[C@@H](Nc2ccnc3cc(-c4cnc5ccccc5c4)nn23)[C@H](O)[C@@H]1O (relative stereo) [Compound I-025]
3. NS(=O)(=O)OC[C@H]1C[C@@H](Nc2ccnc3cc(-c4cccc(Cc5ccccc5)c4)nn23)[C@H](O)[C@@H]1O (relative stereo) [Compound I-069]
4. NS(=O)(=O)OC[C@H]1C[C@@H](Nc2ccnc3cc(-c4cccc5c4oc4ccccc45)nn23)[C@H](O)[C@@H]1O (relative stereo) [Compound I-010]
5. NS(=O)(=O)OC[C@H]1C[C@@H](Nc2ccnc3cc(-c4cccc(N5CCOCC5)c4)nn23)[C@H](O)[C@@H]1O (relative stereo) [Compound I-078]

1: 100; 2: 93; 3: 84; 4: 100; 5: 100

* * *

I'd be grateful if you could share measured inhibition at 0.111 µM for these entries.
# system: recombinant human UAE (Homo sapiens (Human))
# measurement-description: Ubiquitin Activating Enzyme (UAE) HTRF Assay
# measurement-parameters: read-out: % inhibition @0.111 μM
Don't forget the unit after the value.

{"molecule": "NS(=O)(=O)OC[C@H]1C[C@@H](Nc2ccnc3cc(-c4cncc5ccccc45)nn23)[C@H](O)[C@@H]1O (relative stereo)", "inhibition at 0.111 µM": "100%"}
{"molecule": "NS(=O)(=O)OC[C@H]1C[C@@H](Nc2ccnc3cc(-c4ccc5oc6ccccc6c5c4)nn23)[C@H](O)[C@@H]1O (relative stereo)", "inhibition at 0.111 µM": "100%"}
{"molecule": "NS(=O)(=O)OC[C@H]1C[C@@H](Nc2ccnc3cc(-c4cccc5ccsc45)nn23)[C@H](O)[C@@H]1O (relative stereo)", "inhibition at 0.111 µM": "100%"}

// for each molecule below, give its inhibition at 0.111 µM
1. NS(=O)(=O)OC[C@H]1C[C@@H](Nc2cc(Cl)nc3cc(-c4ccc(Br)cc4)nn23)[C@H](O)[C@@H]1O (relative stereo)
2. Cc1sc(-c2ccccc2)nc1-c1cc2nccc(N[C@@H]3C[C@H](COS(N)(=O)=O)[C@@H](O)[C@H]3O)n2n1 (relative stereo)
3. NS(=O)(=O)OC[C@H]1C[C@@H](Nc2ccnc3cc(-c4ccc(Cl)c5ccccc45)nn23)[C@H](O)[C@@H]1O

["28%", "100%", "100%"]

* * *

I'd be grateful if you could share measured inhibition at 0.111 µM for these entries.
# system: recombinant human UAE (Homo sapiens (Human), UniProt P22314)
# measurement-description: Ubiquitin Activating Enzyme (UAE) HTRF Assay
# measurement-parameters: read-out: % inhibition @0.111 μM
Numbers only, in %.

Reference set, count: 6
{"molecule": "NS(=O)(=O)OC[C@H]1C[C@@H](Nc2ccnc3cc(-c4cccc(Br)c4)nn23)[C@H](O)[C@@H]1O (relative stereo)", "inhibition at 0.111 µM, %": 99}
{"molecule": "NS(=O)(=O)OC[C@H]1C[C@@H](Nc2ccnc3cc(-c4cccc(-c5ccccn5)c4)nn23)[C@H](O)[C@@H]1O (relative stereo)", "inhibition at 0.111 µM, %": 100}
{"molecule": "NS(=O)(=O)OC[C@H]1C[C@@H](Nc2ccnc3cc(-c4ccc5ccccc5c4)nn23)[C@H](O)[C@@H]1O (relative stereo)", "inhibition at 0.111 µM, %": 99}
{"molecule": "CCc1ccc2scc(-c3cc4nccc(N[C@@H]5C[C@H](COS(N)(=O)=O)[C@@H](O)[C@H]5O)n4n3)c2c1 (relative stereo)", "inhibition at 0.111 µM, %": 100}
{"molecule": "CC(C)(C)c1cccc(-c2cc3nccc(N[C@@H]4C[C@H](COS(N)(=O)=O)[C@@H](O)[C@H]4O)n3n2)c1 (relative stereo)", "inhibition at 0.111 µM, %": 100}
{"molecule": "NS(=O)(=O)OC[C@H]1C[C@@H](Nc2ccnc3cc(-c4cccc(SC(F)(F)F)c4)nn23)[C@H](O)[C@@H]1O [Compound I-101]", "inhibition at 0.111 µM, %": 99}

// for each molecule below, give its inhibition at 0.111 µM
1. NS(=O)(=O)OC[C@H]1C[C@@H](Nc2ccnc3cc(-c4csc5ccc(F)cc45)nn23)[C@H](O)[C@@H]1O (relative stereo)
2. NS(=O)(=O)OC[C@H]1C[C@@H](Nc2ccnc3cc(-c4c[nH]c5ccccc45)nn23)[C@H](O)[C@@H]1O (relative stereo)
3. NS(=O)(=O)OC[C@H]1C[C@@H](Nc2ccnc3cc(-c4cccc(C5CCCC5)c4)nn23)[C@H](O)[C@@H]1O (relative stereo)

100
100
100

* * *

# system: recombinant human UAE (Homo sapiens (Human))
# measurement-description: Ubiquitin Activating Enzyme (UAE) HTRF Assay
# measurement-parameters: read-out: % inhibition @0.111 μM
reported-endpoint: inhibition at 0.111 µM
Don't forget the unit after the value.

{"molecule": "CCOC(C)(C)c1cccc(-c2cc3nccc(N[C@@H]4C[C@H](COS(N)(=O)=O)[C@@H](O)[C@H]4O)n3n2)c1 (relative stereo) [Compound I-084]", "inhibition at 0.111 µM": "100%"}
{"molecule": "NS(=O)(=O)OC[C@H]1C[C@@H](Nc2ccnc3cc(-c4nc(-c5ccccc5)cs4)nn23)[C@H](O)[C@@H]1O (relative stereo) [Compound I-031]", "inhibition at 0.111 µM": "100%"}

Alright, here's another molecule for you.
Which inhibition at 0.111 µM value belongs to NS(=O)(=O)OC[C@H]1C[C@@H](Nc2ccnc3cc(-c4cc(F)c5ccccc5c4)nn23)[C@H](O)[C@@H]1O [Compound I-118] ?
100%
